Property: IC50; scope: individual compounds
- system-name: ATP-dependent translocase ABCB1 (Homo sapiens)
- protocol-text: Inhibition of human P-gp
measured-quantity: IC50 (nM)

[[record]]
smiles_representation = "CC(C)[C@@H]1NC(=O)c2csc(n2)[C@H](C(C)C)NC(=O)c2csc(n2)[C@H](C(C)C)NC(=O)c2csc1n2"
numeric_result = 1500

[[record]]
smiles_representation = "CCOC(=O)c1csc([C@@H](NC(=O)c2csc([C@@H](NC(=O)c3csc([C@@H](NC(=O)OC(C)(C)C)C(C)C)n3)C(C)C)n2)C(C)C)n1"
numeric_result = 1500


---

- protocol-text: Cytotoxicity against human SW620 cells assessed as cell survival at 10 uM by MTT assay
- Type: cell-based, SW-620
- test-settings: read-out: Activity
measured-quantity: viability at 10 µM

[[record]]
smiles_representation = "COc1cc(C(=O)N[C@H](c2nc(C(=O)Nc3ccccc3C(=O)c3ccccc3)cs2)C(C)C)cc(OC)c1OC"
result = "> 85%"


---

- protocol-text: Cytotoxicity against human SW620 cells assessed as cell survival at 3 uM by MTT assay
- Assay type: cell-based, SW-620
- test-settings: read-out: Activity
measured-quantity: viability at 3 µM

[[record]]
smiles_representation = "CC(C)[C@@H]1NC(=O)c2csc(n2)[C@H](C(C)C)NC(=O)c2csc(n2)[C@H](C(C)C)NC(=O)c2csc1n2"
measured_quantity = "viability at 3 µM"
result = "> 85%"


---

- protocol-text: Cytotoxicity against human HEK293 cells overexpressing human ABCB1 assessed as cell survival at 3 uM by MTT assay
- Type: ADME, cell-based
- test-settings: HEK293 cells that overexpress human ABCB1, read-out: Activity
measured-quantity: viability at 3 µM

[[record]]
smiles_representation = "CC(C)[C@@H]1NC(=O)c2csc(n2)[C@H](C(C)C)NC(=O)c2csc(n2)[C@H](C(C)C)NC(=O)c2csc1n2"
measured_quantity = "viability at 3 µM"
result = "> 85%"


---

- system-name: ATP-dependent translocase ABCB1 (Homo sapiens)
- protocol-text: Stimulation of ATPase activity of ABCB1 (unknown origin) expressed in High Five insect cell membrane assessed as ATP hydrolysis
pEC50: −log10 of the molar value.
measured-quantity: pEC50

[[record]]
smiles_representation = "COc1cc(C(=O)N[C@H](c2nc(C(=O)Nc3ccccc3C(=O)c3ccccc3)cs2)C(C)C)cc(OC)c1OC"
system_name = "ATP-dependent translocase ABCB1 (Homo sapiens)"
numeric_result = 7.57


---

- protocol-text: Retardation factor of the compound using EtOAc-n-hexane at ratio of 1:1 by thin layer chromatography
- Assay type: physicochemical
measured-quantity: Rf

[[record]]
smiles_representation = "CCOC(=O)c1csc([C@@H](NC(=O)c2csc([C@@H](NC(=O)c3cc(OC)c(OC)c(OC)c3)C(C)C)n2)C(C)C)n1"
measured_quantity = "Rf"
numeric_result = 0.4

[[record]]
smiles_representation = "COc1cc(CNC(=O)c2csc([C@@H](NC(=O)c3cc(OC)c(OC)c(OC)c3)C(C)C)n2)cc(OC)c1OC"
measured_quantity = "Rf"
numeric_result = 0.3

[[record]]
smiles_representation = "COc1cc(NC(=O)c2csc([C@@H](NC(=O)c3cc(OC)c(OC)c(OC)c3)C(C)C)n2)cc(OC)c1"
measured_quantity = "Rf"
numeric_result = 0.55

[[record]]
smiles_representation = "CCOC(=O)c1csc([C@@H](NC(=O)/C=C/c2ccc(OC)c(OC)c2)C(C)C)n1"
measured_quantity = "Rf"
numeric_result = 0.5


---

- protocol-text: Cytotoxicity against human HEK293 cells overexpressing human ABCB1 assessed as cell survival at 10 uM by MTT assay
- Assay type: ADME, cell-based
- test-settings: HEK293 cells that overexpress human ABCB1, read-out: Activity
measured-quantity: viability at 10 µM

[[record]]
smiles_representation = "COc1cc(C(=O)N[C@H](c2nc(C(=O)Nc3ccccc3C(=O)c3ccccc3)cs2)C(C)C)cc(OC)c1OC"
result = "> 85%"


---

- system-name: ATP-dependent translocase ABCB1 (Homo sapiens, UniProt P08183)
- Sequence (P08183 whole entry): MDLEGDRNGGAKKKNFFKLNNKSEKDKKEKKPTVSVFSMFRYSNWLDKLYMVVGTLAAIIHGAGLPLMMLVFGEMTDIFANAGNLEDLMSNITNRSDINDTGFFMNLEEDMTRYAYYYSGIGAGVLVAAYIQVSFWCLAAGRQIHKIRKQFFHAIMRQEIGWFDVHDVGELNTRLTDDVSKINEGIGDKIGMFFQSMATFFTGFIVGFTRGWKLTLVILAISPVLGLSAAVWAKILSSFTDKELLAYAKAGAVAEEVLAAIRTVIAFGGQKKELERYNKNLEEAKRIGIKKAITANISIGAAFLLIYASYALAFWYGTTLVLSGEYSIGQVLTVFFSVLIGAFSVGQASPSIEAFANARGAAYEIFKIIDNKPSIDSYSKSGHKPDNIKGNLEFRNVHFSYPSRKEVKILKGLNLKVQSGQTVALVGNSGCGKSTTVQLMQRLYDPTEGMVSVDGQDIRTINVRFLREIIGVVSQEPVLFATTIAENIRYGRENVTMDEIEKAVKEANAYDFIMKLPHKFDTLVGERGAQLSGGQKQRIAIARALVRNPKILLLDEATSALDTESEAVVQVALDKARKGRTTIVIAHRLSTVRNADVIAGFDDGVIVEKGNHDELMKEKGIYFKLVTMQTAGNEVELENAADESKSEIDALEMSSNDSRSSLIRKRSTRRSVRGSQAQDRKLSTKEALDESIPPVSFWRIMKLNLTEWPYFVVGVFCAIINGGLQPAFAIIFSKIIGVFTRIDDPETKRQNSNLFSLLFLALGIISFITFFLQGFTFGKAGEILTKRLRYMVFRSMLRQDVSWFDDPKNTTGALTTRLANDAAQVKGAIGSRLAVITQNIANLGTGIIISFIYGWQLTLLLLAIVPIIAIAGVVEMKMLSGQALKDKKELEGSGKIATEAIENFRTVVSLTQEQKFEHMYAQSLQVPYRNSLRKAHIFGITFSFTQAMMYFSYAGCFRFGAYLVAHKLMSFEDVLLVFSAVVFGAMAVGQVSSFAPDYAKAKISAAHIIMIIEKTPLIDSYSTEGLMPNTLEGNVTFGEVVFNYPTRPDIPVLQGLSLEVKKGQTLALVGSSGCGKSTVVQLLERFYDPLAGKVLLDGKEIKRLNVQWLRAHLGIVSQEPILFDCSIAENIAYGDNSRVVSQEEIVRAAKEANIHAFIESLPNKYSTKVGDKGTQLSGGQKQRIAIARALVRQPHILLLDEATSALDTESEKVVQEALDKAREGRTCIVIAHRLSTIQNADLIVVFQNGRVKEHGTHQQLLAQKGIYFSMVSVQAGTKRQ
- protocol-text: Displacement of […] from ABCB1 (unknown origin) expressed in High Five insect cell membrane at >5 uM preincubated for 10 mins by autoradiography
measured-quantity: IC50 (nM)

[[record]]
smiles_representation = "COc1cc(C(=O)N[C@H](c2nc(C(=O)Nc3ccccc3C(=O)c3ccccc3)cs2)C(C)C)cc(OC)c1OC"
measured_quantity = "IC50"
unit_tag = "nM"
numeric_result = 720


---

- protocol-text: Retention time of the compound by HPLC analysis
- Type: physicochemical
measured-quantity: Retention_time (min)

[[record]]
smiles_representation = "COc1ccc(NC(=O)c2csc([C@@H](NC(=O)c3csc([C@@H](NC(=O)OC(C)(C)C)C(C)C)n3)C(C)C)n2)c(OC)c1"
measured_quantity = "Retention_time"
numeric_result = 7.6

[[record]]
smiles_representation = "COc1ccc([C@@H](C)NC(=O)c2csc([C@@H](NC(=O)c3cc(OC)c(OC)c(OC)c3)C(C)C)n2)cc1"
measured_quantity = "Retention_time"
numeric_result = 3.9

[[record]]
smiles_representation = "COc1cc(C(=O)N[C@H](c2nc(C(=O)NCc3ccc4c(c3)OCO4)cs2)C(C)C)cc(OC)c1OC"
measured_quantity = "Retention_time"
numeric_result = 3.1

[[record]]
smiles_representation = "COc1cc(C(=O)N[C@H](c2nc(C(=O)NCCc3ccccn3)cs2)C(C)C)cc(OC)c1OC"
measured_quantity = "Retention_time"
numeric_result = 2.2

[[record]]
smiles_representation = "COc1cc(C(=O)N[C@H](c2nc(C(=O)Nc3ccc(C(=O)c4ccccc4)cc3)cs2)C(C)C)cc(OC)c1OC"
measured_quantity = "Retention_time"
numeric_result = 6.8

[[record]]
smiles_representation = "CCOC(=O)c1csc([C@@H](NC(=O)c2csc([C@@H](NC(=O)c3ccc(OC)c(OC)c3)C(C)C)n2)C(C)C)n1"
measured_quantity = "Retention_time"
numeric_result = 3.5

[[record]]
smiles_representation = "CCOC(=O)c1csc([C@@H](NC(=O)/C=C/c2ccc(OC)c(OC)c2)C(C)C)n1"
measured_quantity = "Retention_time"
numeric_result = 3.4

[[record]]
smiles_representation = "COc1cc(NC(=O)c2csc([C@@H](NC(=O)c3cc(OC)c(OC)c(OC)c3)C(C)C)n2)cc(OC)c1OC"
measured_quantity = "Retention_time"
numeric_result = 3.3

[[record]]
smiles_representation = "COc1cc(C(=O)N[C@H](c2nc(C(=O)Nc3ccc4c(c3)OCO4)cs2)C(C)C)cc(OC)c1OC"
measured_quantity = "Retention_time"
numeric_result = 3.5

[[record]]
smiles_representation = "COc1cc(NC(=O)c2csc([C@@H](NC(=O)c3cc(OC)c(OC)c(OC)c3)C(C)C)n2)cc(OC)c1"
measured_quantity = "Retention_time"
numeric_result = 4.3

[[record]]
smiles_representation = "COc1cc(C(=O)N[C@H](c2nc(C(=O)NCc3ccc(-c4ccccc4)cc3)cs2)C(C)C)cc(OC)c1OC"
measured_quantity = "Retention_time"
numeric_result = 6.3

[[record]]
smiles_representation = "CCOC(=O)c1csc([C@@H](NC(=O)c2csc([C@@H](NC(=O)c3cc(OC)c(OC)c(OC)c3)C(C)C)n2)C(C)C)n1"
measured_quantity = "Retention_time"
numeric_result = 3.6

[[record]]
smiles_representation = "COc1cc(C(=O)N[C@H](c2nc(C(=O)Nc3ccccc3C(=O)c3ccccc3)cs2)C(C)C)cc(OC)c1OC"
measured_quantity = "Retention_time"
numeric_result = 9.4

